These data points were gathered from patent US20150087627A1.

Exercise: state measured pIC50 for each of the compounds provided.
measured_on: PI3K α (p110α/p85α) (Homo sapiens, UniProt P42336)
Construct: purchased Upstate / Millipore Corporation
Sequence (P42336 whole entry): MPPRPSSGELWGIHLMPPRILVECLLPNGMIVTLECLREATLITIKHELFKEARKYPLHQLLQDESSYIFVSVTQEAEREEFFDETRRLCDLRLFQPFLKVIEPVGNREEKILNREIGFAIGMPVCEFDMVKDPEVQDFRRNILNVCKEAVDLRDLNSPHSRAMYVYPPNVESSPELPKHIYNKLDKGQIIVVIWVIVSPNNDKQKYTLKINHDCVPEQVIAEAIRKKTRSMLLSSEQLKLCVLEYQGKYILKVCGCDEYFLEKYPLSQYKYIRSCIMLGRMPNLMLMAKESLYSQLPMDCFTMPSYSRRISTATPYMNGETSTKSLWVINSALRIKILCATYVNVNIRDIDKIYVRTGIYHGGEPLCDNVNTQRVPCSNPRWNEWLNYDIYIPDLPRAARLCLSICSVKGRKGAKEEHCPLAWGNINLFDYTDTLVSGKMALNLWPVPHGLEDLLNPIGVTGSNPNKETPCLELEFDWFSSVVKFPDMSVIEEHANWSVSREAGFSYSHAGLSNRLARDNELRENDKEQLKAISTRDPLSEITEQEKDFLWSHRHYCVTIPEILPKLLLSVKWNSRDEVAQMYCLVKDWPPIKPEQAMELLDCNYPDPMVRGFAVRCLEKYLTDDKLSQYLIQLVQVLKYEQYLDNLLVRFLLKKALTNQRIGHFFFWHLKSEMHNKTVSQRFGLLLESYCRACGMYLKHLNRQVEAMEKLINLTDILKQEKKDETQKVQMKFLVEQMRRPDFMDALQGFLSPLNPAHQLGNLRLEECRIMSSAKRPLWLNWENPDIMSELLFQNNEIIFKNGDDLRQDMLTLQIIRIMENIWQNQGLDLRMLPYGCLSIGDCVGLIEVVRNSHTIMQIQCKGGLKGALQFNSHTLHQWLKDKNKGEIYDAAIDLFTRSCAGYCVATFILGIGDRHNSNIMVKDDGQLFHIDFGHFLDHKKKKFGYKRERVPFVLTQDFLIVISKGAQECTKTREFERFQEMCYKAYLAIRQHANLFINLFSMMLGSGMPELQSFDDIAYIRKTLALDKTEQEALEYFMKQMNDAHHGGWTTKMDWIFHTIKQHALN
Sequence (P27986 whole entry partner): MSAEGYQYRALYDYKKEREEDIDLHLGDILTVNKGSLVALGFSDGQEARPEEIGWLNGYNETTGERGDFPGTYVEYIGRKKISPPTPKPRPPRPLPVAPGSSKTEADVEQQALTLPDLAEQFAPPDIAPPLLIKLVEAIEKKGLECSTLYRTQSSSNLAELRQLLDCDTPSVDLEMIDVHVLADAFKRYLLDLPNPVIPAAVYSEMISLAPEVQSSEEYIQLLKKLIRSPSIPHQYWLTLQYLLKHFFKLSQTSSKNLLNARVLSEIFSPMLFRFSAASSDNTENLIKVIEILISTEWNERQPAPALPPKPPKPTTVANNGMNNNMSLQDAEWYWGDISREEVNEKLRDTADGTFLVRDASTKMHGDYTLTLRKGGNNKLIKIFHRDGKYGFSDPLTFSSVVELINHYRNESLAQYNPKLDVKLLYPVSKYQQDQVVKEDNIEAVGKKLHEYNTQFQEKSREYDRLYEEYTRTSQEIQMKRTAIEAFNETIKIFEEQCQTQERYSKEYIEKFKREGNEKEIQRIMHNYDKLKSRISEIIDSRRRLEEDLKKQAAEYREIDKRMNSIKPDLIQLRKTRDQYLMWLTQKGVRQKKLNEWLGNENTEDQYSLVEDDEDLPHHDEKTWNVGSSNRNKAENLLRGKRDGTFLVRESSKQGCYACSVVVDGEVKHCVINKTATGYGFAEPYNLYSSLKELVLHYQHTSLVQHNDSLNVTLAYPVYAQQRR
experiment_notes: PI 3-Kinase (human) HTRF assay, PI3K α
Format: biochemical
cond: read-out: PI3K α IC50
pIC50: −log10 of the molar value.

Challenge: Complete the entry with pIC50 for CC(Oc1nc(-c2ccc3ncc(C(=O)N4CCOCC4)n3c2)cnc1N)C(F)(F)F (centres unmarked)
Response given: > 7.00

Challenge: Indicate its recorded pIC50; the compound in question is `O=C(c1cnc2ccc(-c3cnc(Cl)c(NS(=O)(=O)c4ccccc4F)c3)cn12)N1CCOCC1`
Response given: > 7.00

Challenge: Indicate its recorded pIC50; the compound in question is `CC(=O)Nc1nc2ccc(-c3ccc4nccc(-c5ccncc5)c4c3)cc2s1`
Response given: > 6.00

Challenge: Supply pIC50 value. Item: `CN1CCN(CCNc2cnc3ccc(-c4ccc5oc(N)nc5c4)cc3n2)CC1`
Response given: > 7.00

Challenge: Return the recorded pIC50 value; entry: `CN1CCN(C(=O)c2cnc3ccc(-c4ccc5oc(N)nc5c4)cn23)CC1`
Response given: > 7.00

Challenge: Look up pIC50 of `Nc1noc2cc(-c3ccc4ncc(C(=O)N5CCOCC5)n4c3)ccc12` and report it.
Response given: < 5.00

Challenge: # return recorded pIC50 for input `CN1CCN(c2cnc3ccc(-c4ccc5nc(N)oc5c4)cc3n2)CC1`
Response given: > 6.00

Challenge: Identify pIC50 associated with the compound `C[C@@H]1CN(C2CN(C(=O)c3cnc4ccc(-c5ccc6oc(N)nc6c5)cn34)C2)CCN1C`
Response given: > 7.00

* * *

measured_on: PI3K γ (p110γ) (Homo sapiens, UniProt P48736)
Construct: purchased Upstate / Millipore Corporation
Sequence (P48736 whole entry): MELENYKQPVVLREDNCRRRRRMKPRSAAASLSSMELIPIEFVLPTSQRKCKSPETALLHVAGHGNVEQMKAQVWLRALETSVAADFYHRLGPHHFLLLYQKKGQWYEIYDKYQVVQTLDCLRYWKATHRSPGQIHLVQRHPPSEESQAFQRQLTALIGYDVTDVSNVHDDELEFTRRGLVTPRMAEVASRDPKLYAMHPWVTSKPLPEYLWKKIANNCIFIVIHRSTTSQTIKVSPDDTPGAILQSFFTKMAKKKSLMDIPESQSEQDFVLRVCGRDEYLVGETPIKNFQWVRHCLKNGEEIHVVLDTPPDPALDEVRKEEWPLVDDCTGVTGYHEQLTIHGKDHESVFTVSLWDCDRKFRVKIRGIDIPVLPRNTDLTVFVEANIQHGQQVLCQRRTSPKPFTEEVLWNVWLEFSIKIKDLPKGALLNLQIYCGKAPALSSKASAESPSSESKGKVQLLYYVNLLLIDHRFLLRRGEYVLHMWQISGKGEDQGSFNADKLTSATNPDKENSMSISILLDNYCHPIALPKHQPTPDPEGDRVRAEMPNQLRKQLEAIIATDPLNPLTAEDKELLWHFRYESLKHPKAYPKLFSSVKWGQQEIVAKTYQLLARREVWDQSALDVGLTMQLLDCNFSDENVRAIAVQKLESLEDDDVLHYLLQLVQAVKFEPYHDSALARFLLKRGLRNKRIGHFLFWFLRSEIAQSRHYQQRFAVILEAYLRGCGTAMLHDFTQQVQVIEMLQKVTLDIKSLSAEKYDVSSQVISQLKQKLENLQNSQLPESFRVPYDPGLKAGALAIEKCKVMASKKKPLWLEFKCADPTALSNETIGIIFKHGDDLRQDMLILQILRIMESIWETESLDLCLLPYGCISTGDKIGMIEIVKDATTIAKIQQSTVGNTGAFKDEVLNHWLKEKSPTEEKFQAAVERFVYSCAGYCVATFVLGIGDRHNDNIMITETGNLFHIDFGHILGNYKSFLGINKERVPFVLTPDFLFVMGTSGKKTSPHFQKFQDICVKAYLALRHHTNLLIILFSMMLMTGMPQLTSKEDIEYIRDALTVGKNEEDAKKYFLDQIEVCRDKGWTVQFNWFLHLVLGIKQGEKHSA
experiment_notes: PI 3-Kinase (human) HTRF assay, PI3K γ
Assay type: biochemical
cond: Table 4 (PI3K α inhibitors); read-out: PI3K γ IC50
pIC50: −log10 of the molar value.
property_measured: pIC50

Challenge: Hello, please tell me recorded pIC50 for this one: `C[C@@H](N)C(=O)N1CCN(c2cnc3ccc(-c4ccc5oc(N)nc5c4)nc3c2)CC1`
Response given: > 6.00

Challenge: Query pIC50 for `CCOC(=O)N1CCN(c2cnc3ccc(-c4ccc5oc(N)nc5c4)nc3c2)CC1`
Response given: > 7.00

Challenge: State its pIC50: `CN1CCN(C2CN(c3cnc4ccc(-c5ccc6oc(N)nc6c5)nc4c3)C2)CC1`
Response given: > 6.00

* * *

measured_on: PI3K δ (Homo sapiens)
Construct: purchased Upstate / Millipore Corporation
Sequence (O00329 whole entry): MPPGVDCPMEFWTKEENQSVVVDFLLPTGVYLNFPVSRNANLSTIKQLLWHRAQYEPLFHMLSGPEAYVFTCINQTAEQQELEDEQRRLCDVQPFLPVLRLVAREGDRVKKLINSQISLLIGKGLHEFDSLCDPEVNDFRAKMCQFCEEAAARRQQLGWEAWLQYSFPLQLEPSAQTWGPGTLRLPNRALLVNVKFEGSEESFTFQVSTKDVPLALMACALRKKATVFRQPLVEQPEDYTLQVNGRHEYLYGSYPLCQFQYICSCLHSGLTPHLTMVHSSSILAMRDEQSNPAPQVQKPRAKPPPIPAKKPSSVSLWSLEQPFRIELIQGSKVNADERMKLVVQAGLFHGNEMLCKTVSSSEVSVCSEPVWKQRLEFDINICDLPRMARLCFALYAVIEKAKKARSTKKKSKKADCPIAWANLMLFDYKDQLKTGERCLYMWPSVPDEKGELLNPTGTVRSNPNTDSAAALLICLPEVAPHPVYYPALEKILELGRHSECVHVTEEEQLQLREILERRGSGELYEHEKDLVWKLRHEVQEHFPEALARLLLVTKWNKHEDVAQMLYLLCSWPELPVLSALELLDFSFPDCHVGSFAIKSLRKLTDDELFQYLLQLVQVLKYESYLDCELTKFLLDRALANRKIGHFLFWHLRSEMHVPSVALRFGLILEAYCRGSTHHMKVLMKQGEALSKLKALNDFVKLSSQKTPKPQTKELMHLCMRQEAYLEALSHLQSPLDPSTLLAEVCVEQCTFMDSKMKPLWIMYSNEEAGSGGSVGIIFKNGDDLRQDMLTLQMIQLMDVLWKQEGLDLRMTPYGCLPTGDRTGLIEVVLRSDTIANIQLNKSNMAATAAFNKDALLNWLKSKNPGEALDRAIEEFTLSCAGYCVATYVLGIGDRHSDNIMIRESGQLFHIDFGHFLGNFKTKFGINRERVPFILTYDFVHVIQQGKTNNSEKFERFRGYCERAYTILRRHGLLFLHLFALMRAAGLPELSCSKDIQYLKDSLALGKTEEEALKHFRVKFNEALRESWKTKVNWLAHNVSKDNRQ
Sequence (P27986 whole entry partner): as the sequence (P27986 whole entry partner) above
experiment_notes: PI 3-Kinase (human) HTRF assay, PI3K δ
Type: biochemical
cond: read-out: PI3K δ IC50
So I've got a bunch of compounds here, and I need their IC50 values.

Challenge: Fetch value of IC50 on PI3K δ (Homo sapiens) for Nc1nc2cc(-c3ccc4ncc(N5CCNCC5)nc4c3)ccc2o1 [Compound 88] .
Response given: < 10 µM

Challenge: Answer with IC50 of Nc1nc2cc(-c3ccc4ncc(N5CCN(C6CC6)CC5)nc4c3)ccc2o1 [Compound 261] measured for PI3K δ (Homo sapiens).
Response given: > 10 µM

Challenge: Output reported IC50 of the compound CC(=O)Nc1n[nH]c2cc(-c3ccc4oc(N)nc4c3)ccc12 [Compound 430] on PI3K δ (Homo sapiens).
Response given: > 10 µM

Challenge: Fill in IC50 for Nc1nc2cc(-c3ccc4ncc(C(=O)N5CC(N6CCC(F)(F)C6)C5)n4c3)ccc2o1 [Compound 502] tested with PI3K δ (Homo sapiens).
Response given: < 10 µM

Challenge: Give IC50 only, for NCC(=O)N1CCN(c2cnc3ccc(-c4ccc5oc(N)nc5c4)cc3n2)CC1 [Compound 192] , using PI3K δ (Homo sapiens) data.
Response given: < 1 µM

Challenge: Give PI3K δ (Homo sapiens) IC50 for the following compound: Nc1nc2cc(-c3ccc4ncc(C(=O)Nc5cccnc5)n4c3)ccc2o1 [Compound 190]
Response given: < 1 µM

Challenge: Return reported IC50 for target or system PI3K δ (Homo sapiens), item CS(=O)(=O)Nc1cc(-c2ccc3ncc(C(=O)N4CCOCC4)n3c2)cnc1Cl [Compound 418] .
Response given: < 0.1 µM

Challenge: Look up and report measured IC50 (PI3K δ (Homo sapiens)) for the following compound: Nc1nc2cc(-c3ccc4ncc(N5CCn6cncc6C5)nc4c3)ccc2o1 [Compound 394]
Response given: < 1 µM

Challenge: # return IC50 for CN1CCC(N(C)c2cnc3ccc(-c4ccc5oc(N)nc5c4)cc3n2)CC1 [Compound 151] , test system: PI3K δ (Homo sapiens)
Response given: < 1 µM

Challenge: Look up and report measured IC50 (PI3K δ (Homo sapiens)) for the following compound: CN(C)[C@@H]1CCN(c2cnc3ccc(-c4ccc5oc(N)nc5c4)cc3n2)C1 [Compound 378]
Response given: < 10 µM

Challenge: Write IC50 of Nc1nc2cc(-c3ccc4ncc(-c5cccnc5)nc4c3)ccc2o1 [Compound 76] ; system used: PI3K δ (Homo sapiens)
Response given: > 10 µM

Challenge: Answer briefly: IC50 recorded on PI3K δ (Homo sapiens) for Nc1nc2cc(-c3ccc4ncn(C5CCOCC5)c(=O)c4c3)ccc2o1 [Compound 55]
Response given: > 10 µM

Challenge: Provide measured IC50 on PI3K δ (Homo sapiens) for Cc1ccc(-c2cnc3ccc(-c4ccc5oc(N)nc5c4)cc3n2)cn1 [Compound 194] please.
Response given: > 10 µM

Challenge: Provide PI3K δ (Homo sapiens) IC50 reading for Nc1nc2cc(-c3ccc4ncc(C(=O)N5CC[C@H](F)C5)n4c3)ccc2o1 [Compound 476] .
Response given: > 10 µM

Challenge: Provide measured IC50 on PI3K δ (Homo sapiens) for Nc1nc2cc(-c3ccc4ncc(C(=O)N5CCS(=O)(=O)CC5)n4c3)ccc2o1 [Compound 107] please.
Response given: > 10 µM

Challenge: Enter IC50 (test system PI3K δ (Homo sapiens)) for CC(=O)NC1CCN(C(=O)c2cnc3ccc(-c4ccc5oc(N)nc5c4)cn23)CC1 [Compound 147]
Response given: < 10 µM

Challenge: Would you please give the reported IC50 of Nc1nc2cc(-c3cn4c(-c5cn[nH]c5)cnc4cn3)ccc2o1 [Compound 69] with PI3K δ (Homo sapiens)?
Response given: < 10 µM

Challenge: Give reported IC50 for C[C@@H]1CN(C(=O)c2cnc3ccc(-c4ccc5oc(N)nc5c4)cn23)C[C@H](C)O1 [Compound 106] (PI3K δ (Homo sapiens))
Response given: > 10 µM

Challenge: Using PI3K δ (Homo sapiens) as the test system, report measured IC50 of CN1CCN(C2CN(C(=O)c3cnc4ccc(-c5ccc6oc(N)nc6c5)cn34)C2)CC1 [Compound 303] .
Response given: < 10 µM

Challenge: Return reported IC50 for target or system PI3K δ (Homo sapiens), item CC(=O)N1CCN(C2CN(c3cnc4ccc(-c5ccc6oc(N)nc6c5)cc4n3)C2)CC1 [Compound 327] .
Response given: < 1 µM

Challenge: System PI3K δ (Homo sapiens). Read-out IC50. Item CC(C)N1CCN(C(=O)C2CN(c3cnc4ccc(-c5ccc6oc(N)nc6c5)cc4n3)C2)CC1 [Compound 285] . Report value.
Response given: < 1 µM

Challenge: Please report the measured IC50 for Nc1nc2cc(-c3ccc4ncn(C(=O)N5CCOCC5)c4c3)ccc2o1 [Compound 317] tested on PI3K δ (Homo sapiens).
Response given: > 10 µM

Challenge: Please indicate recorded IC50 of Cc1nccn1C1CCN(c2cnc3ccc(-c4ccc5oc(N)nc5c4)cc3n2)CC1 [Compound 344] measured with PI3K δ (Homo sapiens).
Response given: < 1 µM

Challenge: Look up PI3K δ (Homo sapiens) data: IC50 of CCN(CC)CCCNC(=O)c1cnc2ccc(-c3ccc4oc(N)nc4c3)cn12 [Compound 302] , then report it.
Response given: < 0.1 µM

Challenge: Specify the recorded IC50 for CN1CCN(CCc2nnc3ccc(-c4ccc5nc(N)oc5c4)cn23)CC1 [Compound 545] , system: PI3K δ (Homo sapiens).
Response given: > 10 µM

Challenge: // output IC50; input Nc1nc2cc(-c3ccc4ncc(N5CC(N6CCN(C7CC7)CC6)C5)nc4c3)ccc2o1 [Compound 313] ; system PI3K δ (Homo sapiens)
Response given: < 10 µM

Challenge: Check PI3K δ (Homo sapiens) data and give IC50 for Nc1nc2cc(-c3ccc4nccc(-c5cccnc5)c4c3)ccc2o1 [Compound 31] .
Response given: < 0.1 µM

Challenge: Give IC50 for CN1CCN(C(=O)c2cnc3ccc(-c4ccc5oc(N)nc5c4)cn23)CC1 [Compound 44] tested on PI3K δ (Homo sapiens).
Response given: < 10 µM

Challenge: Report value only: IC50, PI3K δ (Homo sapiens), Nc1nc2cc(-c3ccc4ncc(C(=O)N5CC[C@@H](N6CCOCC6)C5)n4c3)ccc2o1 [Compound 466]
Response given: < 10 µM

Challenge: Specify the recorded IC50 for Nc1nc2cc(-c3ccc4ncc(C(=O)N5CCOCC5)n4c3)ccc2s1 [Compound 126] , system: PI3K δ (Homo sapiens).
Response given: > 10 µM

Challenge: Fill in IC50 for Nc1nc2ccc(-c3ccc4nnc(C(=O)N5CCCC5)n4c3)cc2o1 [Compound 305] tested with PI3K δ (Homo sapiens).
Response given: > 10 µM

Challenge: Write down the reported IC50 (system: PI3K δ (Homo sapiens)) of Nc1nc2cc(-c3cc(F)c4oc(N)nc4c3)ccc2o1 [Compound 432]
Response given: > 10 µM

Challenge: Report IC50 on PI3K δ (Homo sapiens) for this entry: Nc1nc2cc(-c3ccc4ncn(CCN5CCCC5)c(=O)c4c3)ccc2o1 [Compound 255]
Response given: < 10 µM

Challenge: Find IC50 for Nc1nc2cc(-c3ccc4ncc(C(=O)NCCCN5CCCC5)n4c3)ccc2o1 [Compound 293] on PI3K δ (Homo sapiens) and write it down.
Response given: < 0.1 µM
